System: P. falciparum translation (P. falciparum lysate)
Experiment: P. falciparum in vitro translation (PfIVT) assay, lysate-based, luciferase reporter
Assay type: biochemical, Plasmodium falciparum
Settings: HsIVT IC50 over PfIVT IC50
# key: entry, value: selectivity index/window, PfIVT compared to HsIVT

Consider the reported selectivity index/window, PfIVT compared to HsIVT for these compounds:
> print(dat)
                                   compound                                 tested.on  reported.value
1  Cc1ccc2c(c1C)NC(=O)C21NN=C(c2ccccc2)S1 (stereo not shown) [MMV019189]  P. falciparum translation (P. falciparum lysate)       ≥ 30 fold
2  O=C(Nc1ccc(C(F)(F)F)c(C(F)(F)F)c1)c1cc(Cl)ccc1O [MMV687807]  P. falciparum translation (P. falciparum lysate)        ≤ 5 fold
3  O=C(NCCN1CCCC1)c1cc(NCCCCN2CCC(F)(F)CC2)nc2ccc(Cl)cc12 [MMV667494]  P. falciparum translation (P. falciparum lysate)       ≥ 30 fold

Param item = O=C(Nc1c(O)cccc1-c1nc2c(C(=O)O)cccc2o1)c1cc(-c2ccccc2)on1 [MMV676008] ; retrieve measured selectivity index/window, PfIVT compared to HsIVT.
≥ 30 fold
